B1: CFHR2 (parent)
chain: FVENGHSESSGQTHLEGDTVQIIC

Variants of: B1
measurementDescription: protein stability index of a GFP-peptide fusion (GPS, HEK-293T) (PSI 1-6); higher = more stable;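 also: lentivirally expressed fusions sorted by FACS into six bins by GFP to DsRed ratio, PSI derived from sequencing read proportions per bin multiplied by bin number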
conditionSet: c terminus: a fixed tail appended
Rule: 1 for protein stability index not less than 2, -1 for anything less.

Please review the entries below; each comes with its answer.
>>> category("H6K")
1
>>> category("G11R")
1

Say whether S9R shows protein stability index of 2 or more.
1

Reported protein stability index at or above 2? G5Y
1

Check the entry S10M : does protein stability index equal or exceed 2?
1
